protocol description: gradient 5% acetonitrile 3 min, to 50% in 2 min, to 85% in 15 min, held 3 min, 100 µL/min
stated conditions: column: Zorbax Extend-C18 2.1 x 50 mm; eluents: water / acetonitrile, 0.1% formic acid
Quick reference: RP-LC retention time of the listed items.
Value expressed in s; do not type the unit.

> print(dat)
                                smiles.text  output.unit  numeric.readout
1         Clc1ccc(-c2ccc(CNCc3ccccn3)o2)cc1            s              689
2  c1ccc2c(c1)CC(N1CCN(c3cccc4c3OCCO4)CC1)C2            s              741
3  Cc1ccccc1Nc1c(-c2cccc(Cl)c2)nc2c(C)cccn12            s              802
4  CCn1c(=O)n(CC)c2cc(S(=O)(=O)c3ccc(C)cc3)c(NC(C)=O)cc21            s              759

// below: RP-LC retention time requested for another compound
Tell me RP-LC retention time reported for CCS(=O)(=O)Nc1ccc(-c2noc(COc3ccc(OC)cc3)n2)cc1
919

---

protocol description: gradient 5% acetonitrile 3 min, to 50% in 2 min, to 85% in 15 min, held 3 min, 100 µL/min
stated conditions: column: Zorbax Extend-C18 2.1 x 50 mm; eluents: water / acetonitrile, 0.1% formic acid
Class yes: RP-LC retention time at least 700 s. Class no: RP-LC retention time below 700 s.

> print(dat)
                                   compound  label.class
1  CN(CCc1noc(-c2ccc(F)cc2)n1)C(=O)Nc1ccccc1F          yes
2  Cc1ccc(-n2c(=O)n(C)c(=O)c3cc(C(=O)Nc4ccc5c(c4)OCO5)cnc32)cc1          yes
3  COc1nc2ccccc2nc1N1CCCC(C(=O)N2CCN(c3ccccc3)CC2)C1 (stereo not given)          yes
4         CCCn1cnc2cc(CNC(=O)Cc3ccsc3)ccc21           no
5  Cc1ccc(NC(=O)Nc2nc(CC(=O)Nc3ccc(F)c(F)c3)cs2)cc1          yes
6  O=C(c1ccc(N2C(=O)CCS2(=O)=O)cc1Cl)N1CCN(c2ccccn2)CC1           no

Does RP-LC retention time meet or surpass 700 s for O=C(Cn1nc2c3ccccc3ncn2c1=O)Nc1ccc(Cl)cc1 ?
yes

Does RP-LC retention time meet or surpass 700 s for Cc1cccn2c(=O)c(-c3nn[nH]n3)cnc12 ?
no

---

protocol description: gradient 5% acetonitrile 3 min, to 50% in 2 min, to 85% in 15 min, held 3 min, 100 µL/min
stated conditions: column: Zorbax Extend-C18 2.1 x 50 mm; eluents: water / acetonitrile, 0.1% formic acid
quantity name: RP-LC retention time (s)
Value expressed in s; do not type the unit.

Guide cases for RP-LC retention time, answers given:
> print(dat)
                                   compound         quantity.name  output.unit  numeric.readout
1  CC(C)Cc1ccc(S(=O)(=O)N2CCc3nc[nH]c3C2)cc1  RP-LC retention time            s              693
2  Cc1cccc(NC(=O)Cn2c(=O)n(-c3ccccc3)c3ncccc32)c1  RP-LC retention time            s              851
3  O=C(CN1CCC2(CC1)N=C(c1ccccc1)C(=O)N2)Nc1cccc(Br)c1  RP-LC retention time            s              687
4                c1nc(N2CCOCC2)c2cn[nH]c2n1  RP-LC retention time            s              340
5  O=C(NCCCN1CCOCC1)c1ccc(-c2ccc(N3CCCCC3)nn2)cc1  RP-LC retention time            s              563
6     Cn1cnc2ccc(-c3noc(Cc4ccccc4Cl)n3)cc21  RP-LC retention time            s              738

Tell me RP-LC retention time reported for CCCn1cnc2cc(CNC(=O)c3cnccn3)ccc21
578

Tell me RP-LC retention time reported for OC(CNCc1ccc(-c2ccc(Cl)cc2Cl)o1)c1ccccc1 (stereo not given)
800

Tell me RP-LC retention time reported for COC[C@@H]1CN(c2cnccn2)C[C@H]1C(=O)NCCn1cccn1
564

Tell me RP-LC retention time reported for CCOc1ccc(Br)cc1C(=O)N1CCNC(=O)C1CC(=O)OC1CCCCC1 (stereo not given)
876
